biological target: BACE1 in primary mouse cortical neurons (mouse, UniProt P56818 46-501); test: cell-based or functional assay
Sequence (P56818 46-501): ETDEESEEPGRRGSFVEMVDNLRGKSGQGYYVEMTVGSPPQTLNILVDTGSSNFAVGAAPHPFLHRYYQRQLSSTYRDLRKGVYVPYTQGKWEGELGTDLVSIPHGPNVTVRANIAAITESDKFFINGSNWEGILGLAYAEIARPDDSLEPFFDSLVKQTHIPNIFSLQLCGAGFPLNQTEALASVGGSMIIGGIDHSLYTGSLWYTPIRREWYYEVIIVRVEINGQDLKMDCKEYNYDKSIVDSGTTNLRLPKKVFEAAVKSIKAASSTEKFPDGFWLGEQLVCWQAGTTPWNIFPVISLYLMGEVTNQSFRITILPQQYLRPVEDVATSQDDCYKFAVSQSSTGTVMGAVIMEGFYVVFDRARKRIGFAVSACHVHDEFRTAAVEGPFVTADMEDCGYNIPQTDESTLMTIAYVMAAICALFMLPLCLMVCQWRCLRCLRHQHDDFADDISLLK
Property: maximal % inhibition of Abeta x-40; scope: individual binders

binder: 6308 (antibody, V domains shown, anti-BACE1 IgG) VH: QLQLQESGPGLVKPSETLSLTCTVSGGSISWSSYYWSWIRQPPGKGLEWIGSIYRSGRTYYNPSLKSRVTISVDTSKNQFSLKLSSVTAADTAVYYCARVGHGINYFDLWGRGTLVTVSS VL: EIVLTQSPATLSLSPGERATLSCRASQSVSSYLAWYQQKPGQAPRLLIYDASKRATGIPARFSGSGSGTDFTLTISSLEPEDFAVYYCQQSLVWPPRTFGGGTKVEIK
unit-of-measure: %
maximal % inhibition of Abeta x-40: 60
//
binder: 6303 (antibody, V domains shown, anti-BACE1 IgG) VH: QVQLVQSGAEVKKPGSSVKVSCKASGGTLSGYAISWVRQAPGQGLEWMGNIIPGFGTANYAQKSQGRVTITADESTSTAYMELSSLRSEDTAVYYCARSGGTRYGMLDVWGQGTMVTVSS VL: EIVMTQSPATLSVSPGERATLSCRASQSVSSNLAWYQQKPGQAPRLLIFGASTRATGIPARFSGSGSGTEFTLTISSLQSEDFAVYYCQQLLTWPPRTFGGGTKVEIK
unit-of-measure: %
maximal % inhibition of Abeta x-40: 76
//
binder: 6310 (antibody, V domains shown, anti-BACE1 IgG) VH: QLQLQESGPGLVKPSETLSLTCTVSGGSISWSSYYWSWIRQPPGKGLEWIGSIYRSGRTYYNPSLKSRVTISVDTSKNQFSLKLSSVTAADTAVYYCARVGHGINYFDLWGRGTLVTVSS VL: EIVLTQSPATLSLSPGERATLSCRASQSVSSYLAWYQQKPGQAPRLLIYDASNRATGIPARFSGSGSGTDFTLTISSLEPEDFAVYYCQQSVTWPPRTFGGGTKVEIK
unit-of-measure: %
maximal % inhibition of Abeta x-40: 71
//
binder: 6314 (antibody, V domains shown, anti-BACE1 IgG) VH: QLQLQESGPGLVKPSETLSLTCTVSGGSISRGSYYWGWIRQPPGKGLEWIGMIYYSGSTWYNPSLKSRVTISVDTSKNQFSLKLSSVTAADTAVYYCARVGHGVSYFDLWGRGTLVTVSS VL: EIVLTQSPATLSLSPGERATLSCRASQSVSSYLAWYQQKPGQAPRLLIYDASNRATGIPARFSGSGSGTDFTLTISSLEPEDFAVYYCQQSIVWPPRTFGGGTKVEIK
unit-of-measure: %
maximal % inhibition of Abeta x-40: 71
//
binder: 6299 (antibody, V domains shown, anti-BACE1 IgG) VH: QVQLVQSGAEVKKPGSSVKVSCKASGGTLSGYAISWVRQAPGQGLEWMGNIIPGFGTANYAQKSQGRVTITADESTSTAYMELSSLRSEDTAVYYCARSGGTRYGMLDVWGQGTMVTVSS VL: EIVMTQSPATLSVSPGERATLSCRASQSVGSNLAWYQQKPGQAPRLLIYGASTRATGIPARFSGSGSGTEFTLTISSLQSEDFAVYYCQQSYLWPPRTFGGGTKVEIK
unit-of-measure: %
maximal % inhibition of Abeta x-40: 70
//
binder: 6313 (antibody, V domains shown, anti-BACE1 IgG) VH: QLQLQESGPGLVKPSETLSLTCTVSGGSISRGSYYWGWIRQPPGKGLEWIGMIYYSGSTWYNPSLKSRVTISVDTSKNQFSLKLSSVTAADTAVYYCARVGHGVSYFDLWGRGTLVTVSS VL: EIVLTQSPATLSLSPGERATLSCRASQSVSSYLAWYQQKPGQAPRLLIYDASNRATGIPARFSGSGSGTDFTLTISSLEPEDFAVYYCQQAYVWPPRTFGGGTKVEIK
unit-of-measure: %
maximal % inhibition of Abeta x-40: 67
//
binder: 6305 (antibody, V domains shown, anti-BACE1 IgG) VH: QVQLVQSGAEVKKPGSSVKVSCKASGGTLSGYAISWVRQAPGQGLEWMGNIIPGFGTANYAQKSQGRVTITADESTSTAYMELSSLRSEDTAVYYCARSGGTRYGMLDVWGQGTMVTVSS VL: EIVLTQSPATLSVSPGERATLSCRASQSVGSNLAWYQQKPGQAPRLLIYGASTRATGIPARFSGSGSGTEFTLTISSLQSEDFAVYYCQQSFVWPPRTFGGGTKVEIK
unit-of-measure: %
maximal % inhibition of Abeta x-40: 67
//
binder: 6311 (antibody, V domains shown, anti-BACE1 IgG) VH: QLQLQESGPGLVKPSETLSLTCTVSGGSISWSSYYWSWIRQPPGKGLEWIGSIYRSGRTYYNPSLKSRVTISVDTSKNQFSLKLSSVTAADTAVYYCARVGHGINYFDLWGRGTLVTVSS VL: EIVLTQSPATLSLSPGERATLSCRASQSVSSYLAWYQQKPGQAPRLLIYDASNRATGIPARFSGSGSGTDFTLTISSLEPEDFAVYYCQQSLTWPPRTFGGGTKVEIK
unit-of-measure: %
maximal % inhibition of Abeta x-40: 63
//
binder: 6307 (antibody, V domains shown, anti-BACE1 IgG) VH: QLQLQESGPGLVKPSETLSLTCTVSGGSISWSSYYWSWIRQPPGKGLEWIGSIYRSGRTYYNPSLKGRVTISVDTSKNQFSLKLSSVTAADTAVYYCARVGHGINYFDLWGRGTLVTVSS VL: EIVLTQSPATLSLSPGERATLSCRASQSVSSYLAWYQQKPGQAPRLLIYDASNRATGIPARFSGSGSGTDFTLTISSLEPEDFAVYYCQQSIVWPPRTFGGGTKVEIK
unit-of-measure: %
maximal % inhibition of Abeta x-40: 68
//
binder: 6315 (antibody, V domains shown, anti-BACE1 IgG) VH: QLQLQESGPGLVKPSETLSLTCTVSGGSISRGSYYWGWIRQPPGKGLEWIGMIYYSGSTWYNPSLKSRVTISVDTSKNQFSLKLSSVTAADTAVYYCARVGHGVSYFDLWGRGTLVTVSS VL: EIVLTQSPATLSLSPGERATLSCRASQSVSSYLAWYQQKPGQAPRLLIYDASKRATGIPARFSGSGSGTDFTLTISSLEPEDFAVYYCQQSLVWPPRTFGGGAKVEIK
unit-of-measure: %
maximal % inhibition of Abeta x-40: 73
